The values you see were collected from patent US20230115945A1.

Target: FGFR2 (Homo sapiens, UniProt P21802)
Construct: made in house; host or cells: E. coli host derived from BL21, infected with T7 phage
Sequence (P21802 22-821): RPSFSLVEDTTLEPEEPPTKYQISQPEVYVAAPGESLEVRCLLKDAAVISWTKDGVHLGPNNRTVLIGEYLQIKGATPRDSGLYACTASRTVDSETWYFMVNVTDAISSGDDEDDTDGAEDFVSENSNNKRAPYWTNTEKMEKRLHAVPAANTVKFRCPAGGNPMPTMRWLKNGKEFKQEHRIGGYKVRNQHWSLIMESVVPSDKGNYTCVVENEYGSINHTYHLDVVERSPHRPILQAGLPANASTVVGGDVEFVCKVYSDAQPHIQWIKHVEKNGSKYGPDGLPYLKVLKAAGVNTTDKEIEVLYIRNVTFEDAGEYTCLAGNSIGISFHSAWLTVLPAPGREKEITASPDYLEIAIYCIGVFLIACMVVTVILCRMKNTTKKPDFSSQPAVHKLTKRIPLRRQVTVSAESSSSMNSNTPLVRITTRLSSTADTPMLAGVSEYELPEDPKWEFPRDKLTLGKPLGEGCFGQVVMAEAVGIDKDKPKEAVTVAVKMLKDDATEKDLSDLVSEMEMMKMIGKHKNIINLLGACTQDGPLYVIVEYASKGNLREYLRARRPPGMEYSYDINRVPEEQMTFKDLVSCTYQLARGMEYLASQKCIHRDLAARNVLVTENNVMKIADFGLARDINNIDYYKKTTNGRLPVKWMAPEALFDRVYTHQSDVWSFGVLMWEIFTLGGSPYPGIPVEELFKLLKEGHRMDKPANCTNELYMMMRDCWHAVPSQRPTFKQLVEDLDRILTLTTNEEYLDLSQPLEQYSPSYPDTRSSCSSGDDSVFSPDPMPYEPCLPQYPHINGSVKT
Experiment: Kinase binding assay (Kd), FGFR2
Conditions: 11-point 3-fold dilution, qPCR readout
Description: Kinase-tagged T7 phage strains were prepared in an E. coli host derived from the BL21 strain. E. coli were grown to log-phase and infected with T7 phage and incubated with shaking at 32° C. until lysis. The lysates were centrifuged and filtered to remove cell debris. […] Test compounds were prepared as 111X stocks in 100% DMSO. Kds were determined using an 11-point 3-fold compound dilution series with three DMSO control points. […] The kinase concentration in the eluates was measured by qPCR. […]
Give measured Kd for each item. Keep answers brief.
Only the number, expressed in nM, is required.

Prompt line: For C=CC(=O)Nc1ccc2c(ccn2-c2nc(Nc3ccc(S(C)(=N)=O)cc3OC)ncc2Cl)c1 (single isomer, unassigned) [Example 88] , what is its reported Kd?
Response line: 26000

Prompt line: Please answer likewise for COc1cc(Nc2ncc(C)c(-c3c[nH]c4c(C)cccc34)n2)ccc1N=S(C)(C)=O
Response line: 3

Prompt line: Cool, now Cc1cnc(Nc2ccc(N=S3(=O)CCN(C)CC3)cc2)nc1-c1c[nH]c2ccccc12
Response line: 4

Prompt line: And the next one, C=CC(=O)Nc1ccc2c(ccn2-c2nc(Nc3ccc(N=S4(=O)CCN(C)CC4)cc3)ncc2Cl)c1 ?
Response line: 28

* * *

target: FGFR1-BCR Ba/F3 cells (Homo sapiens, UniProt P11362); construct: Ba/F3 FGFR1; FGFR1-BCR; Advanced Cellular Dynamics, (Seattle, WA); fused on or other part: P11274 (Breakpoint cluster region protein); test: Ba/F3 cell viability assay, FGFR1; assay type: cell-based; settings: FGFR1-BCR Ba/F3, 48 hours, Cell Titer-Glo 2.0; read-out: Ba/F3 Cells FGFR1 (IC50 nM)
Sequence (P11362 whole entry, change not shown, the tested form may be a part): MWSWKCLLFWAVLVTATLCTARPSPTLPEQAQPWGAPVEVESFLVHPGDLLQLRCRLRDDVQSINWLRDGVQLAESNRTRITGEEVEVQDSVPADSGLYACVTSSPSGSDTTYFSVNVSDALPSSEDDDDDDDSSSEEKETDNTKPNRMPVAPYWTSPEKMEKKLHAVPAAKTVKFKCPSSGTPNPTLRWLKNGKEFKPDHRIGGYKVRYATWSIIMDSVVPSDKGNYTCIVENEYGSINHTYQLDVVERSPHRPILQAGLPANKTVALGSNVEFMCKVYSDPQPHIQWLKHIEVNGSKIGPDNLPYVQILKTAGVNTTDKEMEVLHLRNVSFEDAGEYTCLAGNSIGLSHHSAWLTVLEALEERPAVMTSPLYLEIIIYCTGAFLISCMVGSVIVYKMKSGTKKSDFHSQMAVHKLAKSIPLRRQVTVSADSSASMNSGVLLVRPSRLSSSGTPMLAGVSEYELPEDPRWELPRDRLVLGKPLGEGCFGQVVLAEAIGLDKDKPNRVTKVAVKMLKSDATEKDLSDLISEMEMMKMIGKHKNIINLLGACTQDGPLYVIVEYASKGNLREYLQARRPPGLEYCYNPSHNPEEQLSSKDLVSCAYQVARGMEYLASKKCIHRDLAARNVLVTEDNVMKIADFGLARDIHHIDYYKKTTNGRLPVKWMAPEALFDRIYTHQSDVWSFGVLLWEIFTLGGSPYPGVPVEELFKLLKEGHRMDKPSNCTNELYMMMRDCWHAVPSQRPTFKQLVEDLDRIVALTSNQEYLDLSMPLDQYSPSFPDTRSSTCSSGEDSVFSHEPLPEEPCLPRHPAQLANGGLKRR
Mark Yes only for GI50 values smaller than 2 nM; exact matches and larger values are No.

Prompt line: Please let me know if C=CC(=O)Nc1ccc2c(-c3nc(Nc4ccc(N=S(C)(C)=O)nc4)ncc3Cl)cn(C)c2c1 shows GI50 below 2 nM.
Response line: No

Prompt line: Now consider C=CC(=O)Nc1ccc2c(c1)c(C)cn2-c1nc(Nc2ccc(N=S(C)(C)=O)c(F)c2)ncc1C and answer again.
Response line: Yes

Prompt line: Also need C=CC(=O)Nc1ccc2c(ccn2-c2nc(Nc3ccc(N=S(C)(C)=O)cc3)ncc2Cl)c1 , thanks.
Response line: No

Prompt line: And the next one, C=CC(=O)Nc1ccc2c(ccn2-c2nc(Nc3ccc(S(C)(=N)=O)cc3)ncc2Cl)c1 (centres unmarked) ?
Response line: No

Prompt line: Can you handle COc1cc(Nc2ncc(C)c(-c3c[nH]c4ccccc34)n2)ccc1N=S(C)(C)=O next?
Response line: No

Prompt line: Also C=CC(=O)Nc1ccc2c(-c3nc(Nc4ccc(N=S(C)(C)=O)c(F)c4)ncc3Cl)cn(C)c2c1 ?
Response line: Yes

Prompt line: Now consider C=CC(=O)Nc1ccc2c(c1)c(C)cn2-c1nc(Nc2ccc(N=S(C)(C)=O)c(F)c2)ncc1C#N .
Response line: No

Prompt line: Now the same for C=CC(=O)Nc1cc2ccn(-c3nc(Nc4ccc(N=S(C)(C)=O)cc4)ncc3Cl)c2cc1C
Response line: No

Prompt line: Thanks! And Cc1cnc(Nc2ccc(N=S(C)(C)=O)cc2)nc1-c1c[nH]c2ccccc12 ?
Response line: No
